Listed below: GI50 values for each entry.
# System: COLO 205
# procedure text: NCI tumour cell line growth inhibition, 48 h
Active and inactive are the calls of the source. No stated cut-off is given here; in the data, active = GI50 up to about 1.1 µM and inactive = higher.

[[record]]
compound = "Cc1ccc(SCC(CF)OC(C)n2cnc3c(Cl)nc(N)nc32)cc1 (stereo not given)"
tested_system = "COLO 205"
reading = "> 100 µM (inactive)"

[[record]]
compound = "Cc1nc(-c2cc3ccccc3oc2=O)cs1"
tested_system = "COLO 205"
reading = "> 100 µM (inactive)"

[[record]]
compound = "CSc1ccc2c(cc1=O)C(NC(=O)c1ccc(OC(C)=O)cc1)CCc1cc(O)c(O)c(O)c1-2 (stereo not given)"
tested_system = "COLO 205"
reading = "16.9 µM (inactive)"

[[record]]
compound = "CN(CCN(C)C(=O)CCOS(C)(=O)=O)C(=O)CCOS(C)(=O)=O"
tested_system = "COLO 205"
reading = "> 100 µM (inactive)"


Alright, here's another compound for you.
Give the measured GI50 for `CN(C)Cc1cc(C(=O)/C=C/c2ccc(Cl)c(Cl)c2)cc(CN(C)C)c1O`
1.29 µM (inactive)
